Experiment: Toxicity liver stage against HepG2, at 10uM
Assay type: cell-based
Parameters: test concentration 10 uM, cell line HepG2-A16-CD81EGFP
Conditions: human, HepG2-A16-CD81EGFP cells; read-out: INHIBITION
experimentalReadout: cytotoxicity at 10 µM (%)
Answers are plain numbers, in %.

Some solved entries appear below for comparison.
> print(dat)
                                   compound  measurementunits  obsvalue
1    Cc1ccc(OCCNc2cccc(C(=O)N3CCOCC3)c2)cc1                 %      4.14
2        Cc1nc(Nc2nccs2)cc(C2CN(C(C)C)C2)n1                 %     -5.42
3  CN1CCC(N(Cc2ccccc2)C(=O)c2nccn3ccnc23)CC1                 %      3.52

Count: 2. Required value per item: cytotoxicity at 10 µM.
1. Cc1ccc(S(=O)(=O)N2CCOc3ccccc32)cc1C(=O)O
2. CC(C)Cn1ncc2cc(C(=O)N(C)CCc3ccccc3)cnc21

1: -0.524; 2: -3.42

Count: 5. Required value per item: cytotoxicity at 10 µM.
1. CCCN(C)c1ncc2c(n1)N(C)CCN(CC1CC1)C2=O
2. CCC(C(=O)NC(C)(C)C)n1cccc(OC)c1=O (centres undefined)
3. O=C(O)[C@@H]1CN(Cc2nc3ncccn3n2)C[C@H]1c1cccc(F)c1
4. Cc1csc(C2(NCc3ccc(OCC(F)F)cc3)CCCC2)n1
5. CN(C)CC(=O)N1CCC2(CC1)CN(Cc1ccccc1)C2

1. -5.69
2. -1.04
3. -10.6
4. 2.15
5. 5.03

Count: 2. Required value per item: cytotoxicity at 10 µM.
1. Cc1ccc(NC2CCN(C(=O)Cc3ccc(C)s3)CC2)nn1
2. Cc1ncsc1CN1C[C@H](OCc2ccncc2)[C@H]2OCCC[C@H]21

1. -3.75
2. -139

Count: 5. Required value per item: cytotoxicity at 10 µM.
1. CC(C)C1=NOC(c2nc(-c3cccc(Cl)c3)no2)C1 (centres undefined)
2. CCn1c(SCC(N)=O)nnc1-c1csc2c1CCCC2
3. O=C(NCc1ccco1)[C@@H]1CCO[C@@H]2CCN(CC3CC3)C[C@@H]21
4. O=C(c1cc(Cn2ccc3ccccc32)[nH]n1)N1CCCCC1CO (centres undefined)
5. O=C(c1ccncc1)N1C[C@H]2CC[C@@H](C1)N(C(=O)C1CCCC1)C2

1: -7.42; 2: 16; 3: -78.7; 4: 6.03; 5: 6.77

Count: 7. Required value per item: cytotoxicity at 10 µM.
1. c1ccc(CCN2CCCC2c2ccnc(Nc3cnccn3)n2)cc1 (centres undefined)
2. COc1cccc(S(=O)(=O)NC(=O)COC2CCCCC2)c1
3. COc1ccccc1OC1(C(=O)O)CCN(c2ncnc(C)c2C)CC1
4. CNS(=O)(=O)c1ccc(CNC(=O)c2cc(-c3ccccn3)no2)cc1
5. Cc1c(Cl)cccc1OCC(=O)NC1(C#N)CCSC1 (centres undefined)
6. Cc1ccc(NC(=O)CN2CCOCC2)c(F)c1
7. CN1CC2(CCC1=O)CCN(CC[C@@H](O)c1ccccc1)CC2

1: -3.65; 2: -0.502; 3: -11.2; 4: -11.4; 5: 37.8; 6: 5.76; 7: -0.355

====

Provide the recorded cytotoxicity at 10 µM for the entries that follow.
Experiment: Toxicity liver stage against HepG2, at 10uM
Format: cell-based
Set-up: test concentration 10 uM, cell line HepG2-A16-CD81EGFP
Details: human, HepG2-A16-CD81EGFP cells; read-out: INHIBITION
Numbers only, in %.

Some solved entries appear below for comparison.
> print(dat)
                                   compound  obsvalue
1  COCCN(Cc1ccoc1)S(=O)(=O)c1ccc(OC)c(Cl)c1      6.27
2           COc1ncccc1CNCc1cnc(N2CCOCC2)nc1      2.38
3  Cc1nccc(N[C@H]2CN(CCC(=O)NC3CCCC3)C[C@@H]2C2CC2)n1     -4.57
4         O=C(NCCOc1ncc(Cl)cc1Cl)NCc1ccncc1     -1.86
5        CCC(CC)CN1CCCn2nc(CNC(=O)COC)cc2C1      2.66

Count: 4. Required value per item: cytotoxicity at 10 µM.
1. CN1CCN(Cc2cn3c(n2)CN(CC2CC2)CC3)CC1
2. COCC(=O)NC1(c2cccc(C(F)(F)F)c2)CCC1
3. CC(C)c1nc(C2CCCN2c2cnc3cc(F)c(F)cc3n2)no1 (stereo not given)
4. COC(=O)CN(C)Cc1cc(Br)cs1

1. -119
2. -50
3. 5.18
4. -2.45

Count: 7. Required value per item: cytotoxicity at 10 µM.
1. Cc1cnn(CC2CCCCN2Cc2cc(C)no2)c1 (stereo not given)
2. Cn1cnn(Cc2c(F)cccc2Br)c1=O
3. c1coc(-c2nc(CN3CCn4c(nnc4C4CC4)C3)cs2)c1
4. c1cncc(COC[C@H]2CC[C@H]3[C@H](CCN3Cc3nccs3)O2)c1
5. CCOc1c(Cl)cccc1NCc1cc(C)on1
6. COc1ccc(NC(=O)N2CCC3(CC2)NC(=O)CC3C(=O)O)cc1Cl (stereo not given)
7. CCS(=O)(=O)NC1CCCN(c2cc(C)ccc2F)C1=O (stereo not given)

-9.21
4.48
-4.64
-69.6
1.04
-3.06
3.07

====

Experiment: Toxicity liver stage against HepG2, at 10uM
Assay type: cell-based
Set-up: test concentration 10 uM, cell line HepG2-A16-CD81EGFP
Conditions: human, HepG2-A16-CD81EGFP cells; read-out: INHIBITION
Provide the recorded cytotoxicity at 10 µM for the entries that follow.
Numbers only, in %.

Some solved entries appear below for comparison.
> print(dat)
                                   compound    experimentalreadout  obsvalue
1     CSc1nc2ncc3c(=O)n(CCN4CCCCC4)ccc3n2n1  cytotoxicity at 10 µM      5.23
2  COC1CCCN(C(=O)NCC(F)F)C1 (stereo not given)  cytotoxicity at 10 µM      7.51
3  Cc1ncc(CN2CCN(C(=O)C3CCC3)[C@@H]3CS(=O)(=O)C[C@@H]32)cn1  cytotoxicity at 10 µM     -4.19
4     O=C(Cc1c(F)cccc1Cl)Nc1cccc(N2CCCC2)c1  cytotoxicity at 10 µM      -117
5     COc1cc(Oc2ccc(C(N)=O)cn2)ccc1CN1CCCC1  cytotoxicity at 10 µM    -0.398

Count: 5. Required value per item: cytotoxicity at 10 µM.
1. CCCn1cc2nc(N3CCCC3)[nH]cc-2c1=O
2. CC(C)N1CCC(N2CCOC3(CCCC3)C2)C1=O (stereo not given)
3. COCCn1cnnc1C1CCCN(c2cnccn2)C1 (stereo not given)
4. Cc1ncccc1Oc1nccnc1C1CCN(S(C)(=O)=O)CC1
5. Cc1nc(C2CCCN2C(=O)Cc2ccc(F)cc2)ncc1C(N)=O (stereo not given)

1: 2.13; 2: 1.56; 3: -2.22; 4: -7.88; 5: -18.2

Count: 3. Required value per item: cytotoxicity at 10 µM.
1. CS(=O)(=O)N1CCOCC2(CN(Cc3ccc(F)cc3)CCO2)C1 (stereo not given)
2. CCC1CN(CC(=O)NC2(C#N)CCCC2)CCN1CCOC (stereo not given)
3. CC(NC(=O)c1cccs1)C(=O)Nc1cccnc1N1CCCCC1 (stereo not given)

1: 1.42; 2: 4.56; 3: -8.94

====

Experiment: Toxicity liver stage against HepG2, at 10uM
Assay type: cell-based
Set-up: test concentration 10 uM, cell line HepG2-A16-CD81EGFP
Details: human, HepG2-A16-CD81EGFP cells; read-out: INHIBITION
experimentalReadout: cytotoxicity at 10 µM (%)
Give bare numbers, in %.

Some solved entries appear below for comparison.
> print(dat)
                                querysmiles  obsvalue
1  Cc1cc(=O)n(CCNS(=O)(=O)c2cccc(C(F)(F)F)c2)cn1     -6.98
2  COc1cccc2cc(CNC(C)(C)C(=O)N3CCC(O)CC3)oc12     -12.2
3            C1CCC(CNC2CCSCC2)(N2CCOCC2)CC1     -14.5
4  O=C(c1ccno1)N1CCN2C(=O)N(Cc3ccc(F)cc3)C[C@H]2C1     -5.96

Count: 2. Required value per item: cytotoxicity at 10 µM.
1. CC[C@H](C)[C@H](NC(=O)c1ccccc1-n1cnnn1)C(=O)OC
2. Cc1csc(N2CCCN(C(=O)c3csc(C)n3)CC2)n1

1: 5.16; 2: -3.96

====

Provide the recorded cytotoxicity at 10 µM for the entries that follow.
Test: Toxicity liver stage against HepG2, at 10uM
Type: cell-based
Design: test concentration 10 uM, cell line HepG2-A16-CD81EGFP
Conditions: human, HepG2-A16-CD81EGFP cells; read-out: INHIBITION

Some solved entries appear below for comparison.
> print(dat)
                                   molecule  obsvalue
1  O=C(c1cc[nH]n1)N1CCc2onc(COc3cccnc3)c2C1    -70.3%
2      O=C(c1ccco1)N1CCc2c(COCC3CC3)cncc2C1    -71.3%
3  N#Cc1ccc(CN2CCCCC2Cn2cncn2)c(F)c1 (stereo unspecified)    -1.34%
4  CCC1CN(C(=O)c2csc3nc(-c4ccc(Cl)cc4)cn23)CCN1 (stereo unspecified)      1.6%
5  Cc1ccc(C(=O)N2C[C@H]3CC[C@@H](C2)N(CC2CCC2)C3)s1     -4.2%

Let's switch to this molecule now.
Reported cytotoxicity at 10 µM of Cc1ccc(-c2nc(CNC3CCc4ncnn4C3)co2)cc1 (stereo unspecified) : -3.75%
